Numbers sourced from patent US8933113B2.

# ASSAY TARGET: full-length human Mineralocorticoid Receptor (MR) (Homo sapiens)
# Construct: host or cells: PathHunter CHO-K1 cells
# Sequence (P08235 whole entry): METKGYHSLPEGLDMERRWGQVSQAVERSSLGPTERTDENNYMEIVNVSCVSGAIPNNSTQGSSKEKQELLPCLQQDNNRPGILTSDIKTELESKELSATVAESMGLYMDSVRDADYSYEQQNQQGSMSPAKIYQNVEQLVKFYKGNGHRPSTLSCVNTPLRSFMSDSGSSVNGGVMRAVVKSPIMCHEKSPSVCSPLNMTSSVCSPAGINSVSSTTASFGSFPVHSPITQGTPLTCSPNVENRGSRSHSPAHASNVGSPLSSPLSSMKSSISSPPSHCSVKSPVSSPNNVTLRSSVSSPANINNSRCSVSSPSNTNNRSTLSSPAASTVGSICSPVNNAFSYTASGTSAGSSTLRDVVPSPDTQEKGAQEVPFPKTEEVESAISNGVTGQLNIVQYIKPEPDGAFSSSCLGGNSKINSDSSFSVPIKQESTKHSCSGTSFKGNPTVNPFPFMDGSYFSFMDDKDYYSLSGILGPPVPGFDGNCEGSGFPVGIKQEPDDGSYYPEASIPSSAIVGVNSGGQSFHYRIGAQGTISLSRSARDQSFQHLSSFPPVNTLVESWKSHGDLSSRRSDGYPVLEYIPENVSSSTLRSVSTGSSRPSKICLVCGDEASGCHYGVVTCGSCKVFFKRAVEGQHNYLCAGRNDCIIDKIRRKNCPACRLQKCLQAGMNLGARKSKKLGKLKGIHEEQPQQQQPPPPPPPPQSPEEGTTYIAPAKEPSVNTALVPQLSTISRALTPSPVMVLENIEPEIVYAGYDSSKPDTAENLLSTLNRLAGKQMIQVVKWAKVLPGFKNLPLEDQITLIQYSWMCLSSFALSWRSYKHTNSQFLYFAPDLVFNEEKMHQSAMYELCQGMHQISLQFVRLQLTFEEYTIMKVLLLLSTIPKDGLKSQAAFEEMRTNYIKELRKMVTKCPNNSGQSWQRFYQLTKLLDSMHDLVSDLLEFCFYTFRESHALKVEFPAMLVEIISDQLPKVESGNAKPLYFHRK
# EXPERIMENT SUMMARY: human MR NH Pro assay (PathHunter Protein:Protein interaction assay), MR antagonist activity
# Format: cell-based
# CONDITION PARAMETERS: PathHunter CHO-K1 cells overexpressing human MR; aldosterone about 0.3 nM; 6 hours at 37° C.; luminescence; read-out: Primary Assay IP rating (IP = inflection point for a given dose-response titration curve)
pIC50: −log10 of the molar value.
METRIC NAME: pIC50

[[record]]
compound = "CCC(C(=O)NCCF)(c1ccc(Cl)cc1)n1ccc2c(NS(C)(=O)=O)cccc21 (stereo not shown) [Compound 49]"
observed_value = "6.30 to 7.00"


For the compound CCC(CC)(c1ccc(Cl)cc1)n1ccc2c(NS(C)(=O)=O)cccc21 [Compound 174] , the measured pIC50 on full-length human Mineralocorticoid Receptor (MR) (Homo sapiens) was 6.30 to 7.00

For the compound CCC(CC#N)(c1ccc(Cl)cc1)n1ccc2c(NS(C)(=O)=O)cccc21 (single isomer, unassigned) [Compound 122] , the measured pIC50 on full-length human Mineralocorticoid Receptor (MR) (Homo sapiens) was > 7.00

For the compound C=CCC(C(=O)OC)(c1ccc(Cl)cc1)n1ccc2c(NS(C)(=O)=O)cccc21 (stereo not shown) [Compound 33] , the measured pIC50 on full-length human Mineralocorticoid Receptor (MR) (Homo sapiens) was 6.30 to 7.00
